Ref: patent US9695152B2

# ASSAYED SYSTEM: CYP11B2 (Homo sapiens (Human), UniProt P19099)
# Sequence (P19099 25-503): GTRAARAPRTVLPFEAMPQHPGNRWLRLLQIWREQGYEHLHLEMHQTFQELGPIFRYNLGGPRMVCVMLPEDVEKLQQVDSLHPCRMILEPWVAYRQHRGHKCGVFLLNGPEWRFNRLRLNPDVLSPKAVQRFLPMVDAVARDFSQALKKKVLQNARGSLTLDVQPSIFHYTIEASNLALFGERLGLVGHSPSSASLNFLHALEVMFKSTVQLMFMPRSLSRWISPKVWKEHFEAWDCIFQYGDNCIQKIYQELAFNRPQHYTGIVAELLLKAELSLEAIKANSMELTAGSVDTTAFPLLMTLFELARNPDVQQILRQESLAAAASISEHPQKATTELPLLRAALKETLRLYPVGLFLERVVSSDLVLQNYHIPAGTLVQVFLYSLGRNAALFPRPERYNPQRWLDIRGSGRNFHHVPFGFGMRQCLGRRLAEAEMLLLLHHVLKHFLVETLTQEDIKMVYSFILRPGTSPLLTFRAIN
# ASSAY OVERVIEW: G-402 cellular enzyme assay, human CYP11B2 (aldosterone release, HTRF)
# CONDITION NOTES: G-402 cells expressing human CYP11B2, 1 μM Deoxycorticosterone
ASSAY METRIC: EC50 (nM)

compound="C[C@@H]1c2cc(Cl)ccc2C(=O)N1c1cncc(NC2CN(C(=O)c3ncccc3Cl)C2)c1 (single isomer, unassigned) [Example 27]" unit_symbol=nM value=20

A = CC1c2cc(Cl)ccc2C(=O)N1c1cncc(NC2CN(C(=O)c3ncccc3Cl)C2)c1 (centres unmarked) [Example 12]
B = CN(c1cncc(N2C(=O)c3ccc(Cl)cc3C2(C)C)c1)C1CN(S(=O)(=O)C2CC2)C1 [Example 3]
C = CC1(C)c2cc(Cl)ccc2C(=O)N1c1cncc(NC2CN(S(=O)(=O)C3CC3)C2)c1 [Example 1]
D = CC1(C)c2cc(C#N)ccc2C(=O)N1c1cncc(NC2CN(C(=O)c3ncccc3Cl)C2)c1 [Example 38]
E = CC1(C)c2cc(Cl)ccc2C(=O)N1c1cncc(NC2CCCN(S(=O)(=O)C3CC3)C2)c1 (single isomer, unassigned; (-)) [Example 8]
Exercise: Order the entries by their reported EC50, beginning at the minimum. Give me the labels in the order the question wants.
Key: B, C, A, D, E
(B: 0.4 nM, C: 9 nM, A: 18 nM, D: 31 nM, E: 365 nM)

a = Cc1ccncc1C(=O)N1CC2(CC(Nc3cncc(N4C(=O)c5ccc(Cl)cc5C4(C)C)c3)C2)C1 [Example 19]
b = Cn1cc(C(=O)N2CC(Nc3cncc(N4C(=O)c5ccc(Cl)cc5C4(C)C)c3)C2)cn1 [Example 24]
Exercise: Could you check which of a and b has a smaller value for EC50? Write down the label attached to your selection.
Key: b
(b: 1 nM, a: 86 nM)

P = CN(c1cncc(N2C(=O)c3ccc(Cl)cc3C2(C)C)c1)C1CCN(S(=O)(=O)C2CC2)CC1 [Example 6]
Q = Cc1cncc(C(=O)N2CC(Nc3cncc(N4CCc5cc(Cl)ccc5C4=O)c3)C2)c1 [Example 18]
Exercise: Could you check which of P and Q has a smaller value for EC50? Write down the label attached to your selection.
Key: P
(P: 1 nM, Q: 9 nM)

1 = Cc1ccncc1C(=O)N1CC(Nc2cncc(N3C(=O)c4ccc(C#N)cc4C3(C)C)c2)C1 [Example 32]
2 = C[C@@H]1c2cc(Cl)ccc2C(=O)N1c1cncc(NC2CN(S(=O)(=O)C3CC3)C2)c1 (single isomer, unassigned) [Example 30]
Exercise: Which is greater in EC50, the first item 1 or the second item 2 ? Write down the label attached to your selection.
Key: 1
(1: 27 nM, 2: 18 nM)

A = Cc1cncc(C(=O)N2CC(Nc3cncc(N4C(=O)c5ccc(Cl)cc5C4(C)C)c3)C2)c1 [Example 11]
B = O=C(c1ncccc1Cl)N1CC(Nc2cncc(N3CCc4cc(Cl)ccc4C3=O)c2)C1 [Example 17]
C = CC1(C)c2cc(C#N)ccc2C(=O)N1c1cncc(NC2CCN(C(=O)c3ncccc3Cl)CC2)c1 [Example 36]
Exercise: Highest EC50 first, then in falling order down to the smallest. Give me the labels in the order the question wants.
Key: B, C, A

A = C[C@H]1c2cc(Cl)ccc2C(=O)N1c1cncc(NC2CN(C(=O)c3ncccc3Cl)C2)c1 (single isomer, unassigned) [Example 28]
B = Cn1ccnc1C(=O)N1CC(Nc2cncc(N3C(=O)c4ccc(Cl)cc4C3(C)C)c2)C1 [Example 2]
Exercise: Which is greater in EC50, the first item A or the second item B ? Write down the label attached to your selection.
Key: A
(A: 27 nM, B: 4 nM)

I = Cn1ccnc1C(=O)N1CC(Nc2cncc(N3CCc4cc(Cl)ccc4C3=O)c2)C1 [Example 22]
II = Cc1noc(C)c1C(=O)N1CC(Nc2cncc(N3CCc4cc(Cl)ccc4C3=O)c2)C1 [Example 20]
III = Cc1ccncc1C(=O)N1CC(Nc2cncc(N3CCc4cc(Cl)ccc4C3=O)c2)C1 [Example 16]
Exercise: Highest EC50 first, then in falling order down to the smallest. Give me the labels in the order the question wants.
Key: II, I, III
(II: 55 nM, I: 23 nM, III: 10 nM)

1 = Cc1ccncc1C(=O)N1CC(Nc2cncc(N3C(=O)c4ccc(Cl)cc4C3(C)C)c2)C1 [Example 10]
2 = Cn1cncc1C(=O)N1CCC(Nc2cncc(N3C(=O)c4ccc(C#N)cc4C3(C)C)c2)CC1 [Example 42]
3 = CN(c1cncc(N2C(=O)c3ccc(Cl)cc3C2(C)C)c1)C1CCN(S(=O)(=O)C2CC2)C1 (single isomer, unassigned; (-)) [Example 5]
Exercise: Highest EC50 first, then in falling order down to the smallest. Give me the labels in the order the question wants.
Key: 2, 1, 3
